assay: Cytotoxicity against MRC5 cells; format: cell-based, Homo sapiens; settings: human, MRC5 cells
Mark label 1 only when CC50 stays strictly below 200 µM. Values equal to the cut-off are label 0.

COc1ccc2cc3[n+](cc2c1OC)CCc1cc2c(cc1-3)OCO2.[Cl-] [BERBERINE CHLORIDE]    label 1

State whether 200 µM exceeds CC50 recorded for `COc1cc(C[C@H]2C(=O)OC[C@@H]2Cc2ccc(OC)c(OC)c2)ccc1O` . label 1

State whether 200 µM exceeds CC50 recorded for COc1ccc2c(c1OC)CN1CCc3cc4c(cc3C1=C2)OCO4 [DIHYDROBERBERINE] . label 1

State whether 200 µM exceeds CC50 recorded for COc1ccc2c(c1OC)C(C(Cl)(Cl)Cl)N1CCc3cc4c(cc3C1=C2)OCO4 (stereo not drawn) . label 1

State whether 200 µM exceeds CC50 recorded for `COc1ccc2c(c1OC)CN1CCc3cc4c(cc3[C@@H]1C2)OCO4` . label 1

State whether 200 µM exceeds CC50 recorded for COc1ccc(C2CC(=O)c3c(OC)cc(O)cc3O2)cc1 (stereo not drawn) . label 1

State whether 200 µM exceeds CC50 recorded for COc1ccc(Cc2nccc3cc(OC)c(OC)cc23)cc1OC.Cl [PAPAVERINE HYDROCHLORIDE] . label 0

State whether 200 µM exceeds CC50 recorded for `COc1ccc(C[C@H]2COC(=O)[C@@H]2Cc2ccc(O[C@@H]3O[C@H](CO)[C@@H](O)[C@H](O)[C@H]3O)c(OC)c2)cc1OC` . label 0
